B1: TSN (parent)
chain: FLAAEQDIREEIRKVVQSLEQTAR

Variants of: B1
Test: protein stability index of a GFP-peptide fusion (GPS, HEK-293T) (PSI 1-6); higher = more stable;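 further: lentivirally expressed fusions sorted by FACS into six bins by GFP to DsRed ratio, PSI derived from sequencing read proportions per bin multiplied by bin number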
Settings: c terminus: a fixed tail appended
value-type: protein stability index
Enter the number alone.

protein stability index reported for this variant I8L : 2.02

Measured protein stability index, I12F : 2.89

Record summary for Q6N : reported protein stability index = 1.91

The variant E10V showed protein stability index equal to 2.39

# protein stability index of T22D = 2.5

For record R13Q the listed protein stability index is 2.14

get_value(item= E5I , readout=protein stability index) returns 2.81

// sample L19H , its protein stability index was 2.96

E5D yielded protein stability index of 2.27

Recorded result, I12S , protein stability index: 2.59

Per the records, this variant ( V15I ) has protein stability index equal to 2.19

Note to self: protein stability index recorded for R24V was 1.7

Input S18P . Output protein stability index: 2.3

The variant listed as Q17W has a reported protein stability index of 1.72

The recorded protein stability index for entry I8S equals 3.33

protein stability index in this record for A3H : 2.1

Lab book: protein stability index of Q21R noted as 2.15

protein stability index measured on E20I = 2.05

What the record says about D7T : protein stability index is 1.75

Input L2R . Output protein stability index: 2.4

protein stability index recorded for this variant, E20H , is 2.55

The variant listed as Q21E shows protein stability index equal to 1.9

Sure, the documented protein stability index for A4E is 2.51

Lab note: measured protein stability index of S18E was 2.54

Consider R13F . Its measured protein stability index is 1.55

Noted for I12D : its protein stability index reads 4.64

Form: variant = E20D ; protein stability index = 2.77

Consider I8T . Its measured protein stability index is 2.78

Documented protein stability index of K14P : 3.76

The recorded protein stability index for entry K14S equals 2.07

Summary for this variant, V15L : protein stability index is 2.48

According to the records, this variant Q21W displays protein stability index of 1.87

get_value(item= A23D , readout=protein stability index) returns 1.57

Lab note: T22M gave protein stability index of 2.57

What the record says about Q21K : protein stability index is 1.78

Reported protein stability index for E10T was 2.83

The reported value for A3M in terms of protein stability index is 1.72
